So I've got a bunch of compounds here, and I need their composite z-score values.
SUBJECT_OF_TEST: Left-right determination factor 2 (Homo sapiens)
ASSAY_TEXT: LEFTY2 binders on small-molecule microarrays, primary screen, biochemical, small-molecule microarray, 635 nm fluorescence scan (AID 1110)
ASSAY_CONTEXT: LEFTY2 binding, higher = more signal

CO[C@]12C=C(Br)[C@@H](C[C@@H]1c1ccccc1)[C@@]1(CO1)C2=O
0.36
CCCCCCc1nc(-c2cc(C)c(OC)c(C)c2)cc2c1[Si](C(C)C)(C(C)C)O[C@H]2c1ccccc1
-0.607
O=C1NC(=O)C2C1C=CC(C(O)C=Cc1ccc([N+](=O)[O-])cc1)N2Nc1ccccn1 (stereo not drawn)
0.909

Go through the items and report each one's composite z-score.
1. CCOC(=O)C[C@H]1[C@H](OC(=O)c2ccccc2-c2ccccc2)[C@@H](NC(=O)C2CCCCC2)c2cc(OCCCO)ccc2N1C(=O)c1ccccc1
2. O=C1C[C@@](C(=O)NCCN2CCOCC2)(c2ccc([N+](=O)[O-])cc2)[C@@H](c2ccc(CO)cc2)N1C1CCCCC1
3. COc1ccc([Si](C)(C)[C@H]2[C@H](CC(=O)N(CCO)Cc3ccccc3)O[C@@]3(C(=O)N(C)c4ccccc43)[C@@H]2C)cc1
4. Cc1ccc(N2C(=O)c3ccccc3[C@@H](C(=O)NCC(F)(F)F)[C@@H]2c2ccc(CO)cc2)nc1
5. C[C@@H]1CC[C@H]2C(=O)N3[C@@H](CC[C@@H](C)[C@@H]3c3cccc(N4CCOCC4)c3)C(=O)N2[C@H]1c1cccc(Br)c1

### Response
1: 1.13; 2: 1.06; 3: 0.664; 4: -3.15; 5: 0.458

* * *

Provide the reported composite z-score of each item.
ASSAY_TEXT: binders of probe aFSTL3 on microarray, primary screen, stem cell growth factor project, biochemical, small-molecule microarray, fluorescence 635/667 (AID 1064);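 further: measures binding of the biotinylated anti-FSTL3 antibody to printed compounds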
ASSAY_CONTEXT: higher = more signal

Take a look at these entries with their results.
C#C[C@H](O[Si](C#Cc1ccccc1)(C(C)C)C(C)C)c1ccccc1
-0.16
O=C(NCc1ccccc1)[C@@]1(CCS(=O)(=O)c2ccccc2)COC(c2ccc(OCCCO)cc2)=N1
0.971
Cc1ccc(S[C@]2(C(=O)NC(C)C)CC(=O)N(Cc3cc(C(F)(F)F)cc(C(F)(F)F)c3)[C@@H]2c2ccc(CO)cc2I)cc1
0.808
C=CC[C@]1(C(=O)O)N=C(c2ccc(OCCCO)cc2)O[C@H]1c1ccccc1N=[N+]=[N-]
1.17
O=C(NCC(F)(F)F)[C@@H]1c2ccccc2C(=O)N(Cc2ccccc2Cl)[C@H]1c1ccc(CO)cc1
1.39
COC(=O)Cn1c(C(=O)N2CCCC2)cc2c1C[C@H]1CN(C(=O)c3ccccc3)[C@@](Cc3ccc(OC)cc3)(C(=O)OC)[C@@H]21
0.666
COc1ccc(C(O)C2C=CC3C(=O)N(C)C(=O)C3N2N2CCCCC2)cc1OCc1ccccc1 (configuration not stated)
0.556
NC(=O)[C@H]1[C@@H]2C(=O)O[C@@H](c3ccccc3)[C@@H](c3ccccc3)N2[C@@H](c2ccc(O)cc2)[C@]12C(=O)Nc1ccc(C#CCCO)cc12
0.545
CCC#CCN(Cc1ccccc1Br)[C@H](/C=C/c1ccccc1)[C@@H](O)Cc1ccccc1
1.78
Cc1ccc(S[C@]2(C(=O)NCCCN(C)C)CC(=O)N(C3CCCCC3)[C@@H]2c2ccc(CO)cc2I)cc1
1.93

Answer for every listed entry: what is its composite z-score? The entries follow.
1. CC(=O)NCCCC[C@@H]1NC(=O)[C@H]2C[C@@H](C(=O)NCCCCCCN(C)C)[C@@H](c3ccc(O)cc3)N2C1=O
2. Cc1ccc(N2C(=O)c3ccccc3[C@](C)(C(=O)O)[C@@H]2c2ccc(CO)cc2)nc1
3. CO[C@H]1COC(=O)[C@H](CCSC)NC(=O)CC=C[C@@H](C)COC(=O)[C@@H](OCc2ccccc2)C=C[C@@H]1C
4. CCCCCCc1nc(-c2cc(C)c(OC)c(C)c2)cc2c1[Si](C(C)C)(C(C)C)O[C@H]2c1ccccc1
5. O=C1NC(=O)C2C1C=CC(C(O)C=Cc1ccc([N+](=O)[O-])cc1)N2Nc1ccccn1 (configuration not stated)
6. CC(C)N1CC=CC23O[C@@H]4/C=C\CCCOC(=O)C4[C@H]2C(=O)N(CCO)[C@@H]3C1=O (some centres not stated)

### Response
-0.463
1.5
-0.929
-0.315
-0.273
-0.0118

### Prompt Recorded composite z-score for "O=C/C=C/c1ccccc1Cl" , please?
### Response 0.206
